Listing: Ki of selected compounds
tested_on: Sushi domains (SD1/2) protein
method_summary: Fluorescence polarization (FP) competition assay with AJAP-1probe, calculated Ki
Type: binding
measurement_setup: Table 6, elongation and truncation scan of PIANP binding epitope; read-out: Ki (nM) mean ± SEM
Residues, ends and D or L forms follow the SMILES beside them.
Please state the figure in nM; there is no need to write the unit.

Query (compound): CC(=O)N[C@H](C(=O)N[C@@H](Cc1c[nH]c2ccccc12)C(=O)NCC(=O)N1CCC[C@H]1C(=O)N[C@H](C(=O)N[C@H](C(=O)N[C@@H](CO)C(=O)N[C@@H](CCCNC(=N)N)C(=O)N[C@@H](CCC(=O)O)C(=O)N[C@@H](CC(=O)O)C(=O)NCC(N)=O)C(C)C)[C@@H](C)O)C(C)C (Ac-VWGPTVSREDG-NH2) ; field requested: Ki
1740

Query (compound): CC[C@H](C)[C@H](NC(C)=O)C(=O)N[C@H](C(=O)N[C@@H](Cc1c[nH]c2ccccc12)C(=O)NCC(=O)N1CCC[C@H]1C(=O)N[C@H](C(=O)N[C@H](C(=O)N[C@@H](CO)C(=O)N[C@@H](CCCNC(=N)N)C(=O)N[C@@H](CCC(=O)O)C(=O)N[C@@H](CC(=O)O)C(=O)NCC(N)=O)C(C)C)[C@@H](C)O)C(C)C (Ac-IVWGPTVSREDG-NH2) ; field requested: Ki
15700

Query (compound): CC[C@H](C)[C@H](NC(=O)[C@H](C)NC(=O)[C@H](Cc1c[nH]c2ccccc12)NC(=O)[C@@H]1CCCN1C(=O)[C@H](Cc1ccc(O)cc1)NC(=O)[C@H](CCC(N)=O)NC(=O)[C@H](CO)NC(C)=O)C(=O)N[C@H](C(=O)N[C@@H](Cc1c[nH]c2ccccc12)C(=O)NCC(=O)N1CCC[C@H]1C(=O)N[C@H](C(=O)N[C@H](C(=O)N[C@@H](CO)C(=O)N[C@@H](CCCNC(=N)N)C(=O)N[C@@H](CCC(=O)O)C(=O)N[C@@H](CC(=O)O)C(=O)NCC(N)=O)C(C)C)[C@@H](C)O)C(C)C (Ac-SQYPWAIVWGPTVSREDG-NH2) ; field requested: Ki
762

====

tested_on: Sushi domains (SD1/2) protein
method_summary: Fluorescence polarization (FP) competition assay with AJAP-1probe, calculated Ki
Type: binding
measurement_setup: Table 6, elongation and truncation scan of PIANP binding epitope; read-out: Ki (nM) mean ± SEM
Residues, ends and D or L forms follow the SMILES beside them.
observable: Ki (nM)
Please state the figure in nM; there is no need to write the unit.

>>> measured_number("CC[C@H](C)[C@H](NC(=O)[C@H](C)NC(=O)[C@H](Cc1c[nH]c2ccccc12)NC(=O)[C@@H]1CCCN1C(=O)[C@H](Cc1ccc(O)cc1)NC(C)=O)C(=O)N[C@H](C(=O)N[C@@H](Cc1c[nH]c2ccccc12)C(=O)NCC(=O)N1CCC[C@H]1C(=O)N[C@H](C(=O)N[C@H](C(=O)N[C@@H](CO)C(=O)N[C@@H](CCCNC(=N)N)C(=O)N[C@@H](CCC(=O)O)C(=O)N[C@@H](CC(=O)O)C(=O)NCC(N)=O)C(C)C)[C@@H](C)O)C(C)C (Ac-YPWAIVWGPTVSREDG-NH2)")
433

Query (compound): CC[C@H](C)[C@H](NC(=O)[C@H](C)NC(=O)[C@H](Cc1c[nH]c2ccccc12)NC(=O)[C@@H]1CCCN1C(C)=O)C(=O)N[C@H](C(=O)N[C@@H](Cc1c[nH]c2ccccc12)C(=O)NCC(=O)N1CCC[C@H]1C(=O)N[C@H](C(=O)N[C@H](C(=O)N[C@@H](CO)C(=O)N[C@@H](CCCNC(=N)N)C(=O)N[C@@H](CCC(=O)O)C(=O)N[C@@H](CC(=O)O)C(=O)NCC(=O)NCC(=O)N[C@@H](CC(=O)O)C(=O)N1CCC[C@H]1C(N)=O)C(C)C)[C@@H](C)O)C(C)C (Ac-PWAIVWGPTVSREDGGDP-NH2) ; field requested: Ki
597
